- protocol-details: wn = mass fraction of the nth substance listed
- condition-context: 343.15 K; 101 kPa; Liquid; Vibrating tube method; w1 = 0.1
measured-attribute: mass density (kg/m3)
Express it in kg/m3; write the number only.

*Q* If you can, please state the reported mass density value of CC(O)CN(CC(C)O)CC(C)O (centres undefined) [triisopropanolamine] + O .
*A* 982.83

*Q* Give the measured mass density of OCCNCCO [diethanolamine] + O .
*A* 988.796

*Q* Sample CC(O)CN (centres undefined) [1-amino-2-propanol] + O — what was its mass density?
*A* 978.237

*Q* What does the data say about its mass density? Entry: CC(O)CNCC(C)O (centres undefined) [N-(2-hydroxypropyl)-2-hydroxy-1-propanamine] + O
*A* 982.81
